- Test system: SH-SY5Y
- Experiment Description: Anti-ferroptosis activity against RSL3-induced ferroptosis in human SH-SY5Y cells assessed as reversal of ferroptosis by measuring cell viability measured after 48 hrs by MTT assay
- Type: functional, cell-based
In this section, each of the compounds is paired with its reported IC50.
Your answer should be a plain number; it is taken to be in nM.

As a guide, the following entries are already answered.
>  <Smiles Data>
Oc1ccc(-c2cn3ccccc3n2)c(O)c1

>  <Test Target>
SH-SY5Y

>  <IC50, nM>
2380

$$$$
>  <Smiles Data>
FC(F)(F)c1ccccc1-c1nc2ccccn2c1NCc1ccco1

>  <Test Target>
SH-SY5Y

>  <IC50, nM>
412

$$$$

Reported IC50 for "Clc1cccc(CNc2c(-c3cccc(Cl)c3)nc3ccccn23)c1" was 181

Attribution: ChEMBL document CHEMBL6177954
